- Test system: KM12
- run description: NCI tumour cell line growth inhibition, 48 h
Activity calls are given as the source filed them. Rule as the data show it: active = GI50 up to about 1.1 µM and inactive = higher.
I would appreciate it if you answered using one of these outcomes: active, inactive

CC(=O)/C=C/c1cccc(N=S)c1	inactive
c1ccc(COc2ccc(C[P+](c3ccccc3)(c3ccccc3)c3ccccc3)cc2)cc1	active
O=[N+]([O-])c1ccc2c(c1)C1=NN(c3ccccc3)C(c3ccccc3Br)C1CCC2 (stereo not given)	inactive
COc1ccc(C2S/C(=C\c3ccc([N+](=O)[O-])cc3)C(=O)N2NC(=O)Cc2ccccc2)cc1 (stereo not given)	inactive

Ask: Given "Fc1cc(-c2cc(-c3ccc4c(c3)OCO4)n[nH]2)c(Cl)cc1Cl" , state the outcome it received in this test.
Reply: inactive

Ask: Kindly provide the recorded test outcome for the following compound: "CC(=O)CNC(=O)OC(C)(C)C"
Reply: inactive

Ask: Call for entry "Cc1ccc(S(=O)(=O)NC(=O)NC2=NC(C)(C)N(c3ccc(Cl)c(Cl)c3)C(N)=N2)cc1" :
Reply: inactive

Ask: Hi team, can someone confirm the assay call for "COc1c2c(cc3oc(=O)ccc13)OC(C)(C)C=C2" ?
Reply: inactive

Ask: Entry "C[N+](C)([O-])CCCNc1c2ccccc2nc2cccc([N+](=O)[O-])c12" : call = ?
Reply: active

Ask: Hey, what did the test say about O=[N+]([O-])c1nccn1CC(O)c1ccc(F)cc1 (stereo not given) ?
Reply: inactive

---

- Tested on: MDA-MB-231
- run description: NCI tumour cell line growth inhibition, 48 h
Calls of active or inactive are those of the source. Cut-off read from the data, not from the text of the source: active = GI50 up to about 1.1 µM and inactive = higher. Where a SMILES comes first, the peptide text is derived from it. The star is where a group is joined. Boc = CC(C)(C)OC(=O)*; OSu = O=C1CCC(=O)N1O*
Your response should consist of one outcome taken from TRUE (active), FALSE (inactive)

Below, 5 compounds whose answers are already recorded.
CC(NC(=O)C(NC(=O)OC(C)(C)C)C(C)C)C(=O)NCC(=O)ON1C(=O)CCC1=O (stereo not drawn) (Boc-Val-Ala-Gly-OSu; configuration not given here)	FALSE
CCC1c2[nH]c3ccccc3c2C[C@H]2C(=O)NC(COC(C)(C)C)C(=O)N12 (some centres undefined)	FALSE
O=C(c1ccccc1)c1ccc(C(c2c(O)c3ccccc3oc2=O)c2c(O)c3ccccc3oc2=O)cc1	FALSE
COc1ccc(-n2c(=O)[nH]n(C(C)=O)c2=O)cc1	FALSE
O=S(=O)(c1ccccc1)[C@@H]1[C@H]2C=C[C@](CS)(O2)[C@H]1S(=O)(=O)c1ccccc1	FALSE

Ask: Short answer needed: outcome of this test for CC1C(=NO)C(C)C(c2ccccc2)N(N=O)C1c1ccccc1 (centres undefined) ?
Reply: FALSE

Ask: # outcome recorded in this test, key = "CCC/C(=N\NC(=S)N1CCN(c2ccccn2)CC1)c1ccccn1"
Reply: TRUE

Ask: What is the recorded call for this compound in the test? CCN(CC)CCCC(C)Nc1cc(/C=C/c2ccc(Cl)cc2)nc2cc(N(C)C)ccc12 (centres undefined)
Reply: FALSE

Ask: Query: recorded result category for CC(=O)OC1=CC2(OC(C)=O)CC(C)(C)C1C1C(=O)C=CC(=O)C12 (centres undefined) in this test
Reply: FALSE

---

- Test system: HOP-92
- run description: NCI tumour cell line growth inhibition, 48 h
Calls of active or inactive are those of the source. Cut-off read from the data, not from the text of the source: active = GI50 up to about 1.1 µM and inactive = higher.
Thanks in advance; please answer with one of these: active, inactive

O=C(/C=C/c1ccc(O)c(O)c1)OCc1ccccc1 [BENZYL CAFFEATE]	inactive
COc1ccc2c(c1)C(N)=C(Cc1ccncc1)C2=O	inactive
CC(=O)CNC(=O)OC(C)(C)C	inactive
COc1ccc(C(NCCNC(c2ccc(OC)c(OC)c2)c2cc3c(cc2O)OCO3)c2cc3c(cc2O)OCO3)cc1OC (stereo not given)	inactive
C[N+](C)(N)CCC[N+](C)(C)N	inactive

Ask: What was the test verdict on "Cc1cc(/N=N/c2ccccc2C)ccc1N" ?
Reply: inactive

Ask: Lab log entry: "CCOC(CN(C)C(=S)Nc1cccc2ccccc12)OCC" — outcome as called in the assay?
Reply: inactive

Ask: Which outcome did this test record for the compound "CCOC(=O)NC(=O)c1cn(CCCOC(=O)NCCCCCCNC(=O)OCCCn2cc(C(=O)NC(=O)OCC)c(=O)[nH]c2=O)c(=O)[nH]c1=O" ?
Reply: inactive

Ask: Dear colleague, could you share the recorded outcome for "CCC/C(=N\NC(=S)N1CCN(c2ccccn2)CC1)c1ccccn1" when you have a moment?
Reply: active

Ask: Can you look up the reported call for "O=C(Sc1sc(=S)sc1SC(=O)c1ccccc1)c1ccccc1" for me?
Reply: inactive

Ask: Please indicate how the test categorized "C/C(=C\C(=O)Nc1ccc2[nH]nnc2c1)Nc1ccc2[nH]nnc2c1" .
Reply: inactive

Ask: What did the test return for "N#CC(C#N)=C(N)/C(C#N)=C/c1cc(O)c(O)c(Br)c1" ?
Reply: inactive

Ask: Per the assay record, what outcome was assigned to "N#CCCC(C=O)(CCC#N)CCC#N" ?
Reply: inactive

Ask: Field: outcome | Entry: "C/C(CC(=O)Nc1cccc(Cl)c1C)=N\NC(=O)c1ccncc1"
Reply: inactive
